- Test system: β-galactosidase in CMV-LacZ C2C12 myotubes
- PROTOCOL: CMV-LacZ secondary screen in C2C12 myotubes (β-Gal stabilizing assay)
- Assay type: cell-based, mouse
- TEST CONDITIONS: 40 uM; C2C12 CMV-LacZ myotubes; fold relative to DMSO
Entries and their CMV-LACZ in Myotubes, signal relative to DMSO
PROPERTY LABEL: CMV-LACZ in Myotubes, signal relative to DMSO

| COMPOUND | REPORTED |
| --- | --- |
| O=C(NCc1ccccc1)c1csc(-c2cccnc2)n1 [MLS000860966-01] | 0.7920 |
| COc1ccc(OC)c(S(=O)(=O)Nc2c(NC3CCCCC3)c3ccccc3oc2=O)c1 [MLS001095705-01] | 1.0800 |
| NC(=O)c1sc2nc3c(cc2c1N)CCC3 [MLS000707378-01] | 0.9167 |
| CCNC(=O)C(=O)Nc1cc2c3c(c1)CCN3C(=O)CC2 [MLS001167798-01] | 1.2800 |
| Cc1ccc(C(=O)N2CCN(S(=O)(=O)N3CCOCC3)CC2)cc1 [MLS000663185-01] | 1.1270 |
| O=C(NCCc1ccccc1)C1CCC(=O)N1C1CCCC1 (stereo not drawn) [MLS001200665-01] | 1.2706 |
| O=C(O)c1cc(N=Cc2c(O)c3ccccc3oc2=O)ccc1O [MLS001216260-01] | 0.8367 |
| CC(C)(CC(=O)O)CC(=O)N1CCCN(c2nccc(C(F)(F)F)n2)CC1 [MLS001181671-01] | 0.9377 |
| CCCS(=O)(=O)N1CCCC(C(=O)c2cccc(Cl)c2)C1 (stereo not drawn) [MLS000862690-01] | 1.018 |
| CCOc1ccc(NC(=O)CN2C(=O)S/C(=C/c3cccn3C)C2=O)cc1 [MLS000702680-01] | 1.181 |
| O=C(c1ccccc1)N1CCN(S(=O)(=O)c2cccs2)CC1 [MLS001035690-01] | 1.0976 |
| CC(C)c1ccc(OC(=O)c2cccc(S(=O)(=O)N3CCN(C)CC3)c2)cc1 [MLS001130011-01] | 1.0156 |
| O=C(Nc1ccc(Cl)cc1N1CCOCC1)C1CCCCC1 [MLS001060549-01] | 1.075 |
| CC(=O)Nc1ccc(NC(=O)c2cc(=O)c3cc(C)cc(C)c3o2)cc1 [MLS001200396-01] | 0.9733 |
| Cc1cccc(NC(=O)c2ccc(N3C(=O)C4CCCCC4C3=O)cc2)c1C (stereo not drawn) [MLS001147727-01] | 1.1835 |
| Cc1cc([N+](=O)[O-])ccc1NC(=O)C(C)N1CCN(c2ccccn2)CC1 (stereo not drawn) [MLS000764729-01] | 1.1900 |
| CSc1ccc(S(=O)(=O)NCc2ccccc2)cc1 [MLS000531177-01] | 1.1522 |
| CCc1c(C)sc(NC(=O)c2ccco2)c1C#N [MLS001240181-01] | 1.1376 |

* * *

- Test system: α7 integrin (LacZ reporter in α7βgal+/− myoblasts)
- PROTOCOL: Myoblast α7+/LacZ integrin FDG assay (Burkin assay in myoblasts, 96-well)
- Type: cell-based, mouse
- TEST CONDITIONS: 20 uM; SU9516 analogs, 96-well, N=3-6
Note to self: values exactly at 0.7 are fulfilled. So Burkin Assay in Myoblasts, value relative to DMSO at or above 0.7 is fulfilled, below is not fulfilled.

| MOLECULE | DISCRETE LABEL |
| --- | --- |
| CCn1c(O)c(C(C#N)=C2N=c3ccccc3=N2)c2ccccc21 | fulfilled |
| Cc1ccc2c(c1)/C(=C/c1ccccc1)C(=O)N2 | not fulfilled |
| O=Nc1c(-c2c(O)[nH]c3ccccc23)[nH]c2ccccc12 | not fulfilled |
| CN1CCN(c2ccccc2/C=C2/C(=O)Nc3ccccc32)CC1 | fulfilled |
| Cc1[nH]c(/C=C2\C(=O)Nc3ccc(S(=O)(=O)Cc4c(Cl)cccc4Cl)cc32)c(C)c1C(=O)C1CCCN1CN1CCCC1 (centres unmarked) | not fulfilled |
| Cc1ccc2c(c1)/C(=C/c1ccccc1F)C(=O)N2 | fulfilled |
| O=C1Nc2ccccc2/C1=C/c1cnc(-c2ccccc2)[nH]1 | fulfilled |
| NC(=O)COc1ccc(C(=O)/C=C2/C(=O)Nc3ccccc32)cc1 | not fulfilled |
| CCO/C(C)=C1\C(=O)Nc2ccccc21 | fulfilled |
| O=C1Nc2ccccc2/C1=C\c1cccn1-c1ccc(OC(F)(F)F)cc1 | fulfilled |
| CC(C)Oc1ccc(C(=O)/C=C2/C(=O)Nc3ccccc32)cc1 | not fulfilled |
